The reported measurements were obtained from ChEMBL document CHEMBL1201862.

- Tested on: OVCAR-3
- experimental-protocol: NCI tumour cell line growth inhibition, 48 h
Activity calls are given as the source filed them. Cut-off read from the data, not from the text of the source: active = GI50 up to about 1.1 µM and inactive = higher.
Listed next: entries and their corresponding GI50.

compound	GI50
O=C(/N=N/c1cccc(Cl)c1)NNc1cccc(Cl)c1	15 µM (inactive)
CCCCn1cc[n+](-c2nc3ccccc3n2C)c1	> 100 µM (inactive)

Q. I am curious: what GI50 value has been reported for CS(=O)(=O)Nc1ccc2c(c1)oc(=O)c1ccccc12 ?
A. > 100 µM (inactive)

Q. GI50 lookup needed for O=C(Nc1ccccc1)O/N=C(/CBr)c1ccccc1 , thanks.
A. 17.7 µM (inactive)

Q. Need GI50, item Cc1ccc(-c2cn3c(nc4ccccc43)c(C)n2)cc1
A. 48 µM (inactive)

Q. For CCCCCC/C=C/CCCCCCCc1cccc(O)c1C(=O)O , what is its reported GI50?
A. 42.3 µM (inactive)

Q. Please look up its GI50: CCCCc1ccc(Nc2nc(N)c3[nH]cnc3n2)cc1
A. 20.7 µM (inactive)

Q. Item under review: Nc1c(S(=O)(=O)O)cc(S(=O)(=O)O)c2ccc(/N=N/c3ccccc3)c(O)c12 . Reported GI50?
A. > 100 µM (inactive)

Q. I have this compound here, Cc1ccc(S(=O)(=O)N/N=C/c2oc(-c3cccc([N+](=O)[O-])c3)c(-c3cccc([N+](=O)[O-])c3)c2[N+](=O)[O-])cc1 , and I need its recorded GI50.
A. > 100 µM (inactive)

Q. Item CCC(C#N)N(Cc1cccc(CN(C(C)=O)C(C#N)CC)c1)C(C)=O (configuration not stated) has what recorded GI50?
A. > 100 µM (inactive)

Q. Please report the recorded GI50 for Cc1c2ccncc2c(C)c2c1[nH]c1ccc(OC(C)(C)C)cc12 .
A. 1.73 µM (inactive)

Q. Can you look up the measured GI50 of CCSC1=C(C)N(/C=N/C(C)(C)C)CC1 for me?
A. > 100 µM (inactive)

* * *

- Test system: CCRF-CEM
- experimental-protocol: NCI tumour cell line growth inhibition, 48 h
Calls of active or inactive are those of the source. Cut-off read from the data, not from the text of the source: active = GI50 up to about 1.1 µM and inactive = higher.
endpoint: GI50

Worked cases, answers included:
molecule	endpoint	endpoint-result
CCCc1c(-c2ccccc2)[nH]c2ccccc2c1=O	GI50	41.3 µM (inactive)
CCN(CC)c1ccc(/N=C2\C=C(Cl)C(=O)c3ncccc32)c(C)c1	GI50	1.68 µM (inactive)
N/C(=N\NC(=O)c1nc2ccccc2s1)c1ccccn1	GI50	2.42 µM (inactive)
N#C/C(=C\c1cc(O)ccc1O)C(N)=O	GI50	21.5 µM (inactive)
N#Cc1nc(-c2cccc(-c3nc(C#N)c(N)o3)n2)oc1N	GI50	21.2 µM (inactive)

Q. Entry O=C(O)c1cc(S(=O)(=O)N/N=C\c2c3ccccc3[n+]([O-])c3ccccc23)ccc1O : reported GI50 = ?
A. 8.57 µM (inactive)

* * *

- Tested on: OVCAR-4
- experimental-protocol: NCI tumour cell line growth inhibition, 48 h
Calls of active or inactive are those of the source. Cut-off read from the data, not from the text of the source: active = GI50 up to about 1.1 µM and inactive = higher.
endpoint: GI50

molecule	target-of-assay	endpoint-result
O=C(O)CC(NC(=O)CP(=O)(O)O)C(=O)O (stereo not given)	OVCAR-4	2180 µM (inactive)
CC(C)(C)OC(=O)N/N=C(/N)c1ccccc1	OVCAR-4	> 100 µM (inactive)
CC(=O)O[C@H]1CC[C@@]2(C)C(=CC[C@@H]3[C@@H]2CC[C@]2(C)c4c(cc(C#N)c(=N)n4C(C)=O)C[C@@H]32)C1	OVCAR-4	18.7 µM (inactive)
CCC1=CC(OCc2ccccc2)C(CCN(Cc2ccccc2)C(=O)OCc2ccccc2)C1 (stereo not given)	OVCAR-4	13.7 µM (inactive)
CCOC(=O)c1nnc2c(C#N)c(-c3ccccc3)c(C)n2c1N	OVCAR-4	10.9 µM (inactive)

Q. What value of measured GI50 is listed for COc1ccc2c(O)c(Oc3ccc(Cl)cc3)c(=O)oc2c1 ?
A. > 100 µM (inactive)

Q. What does the data say about its GI50? Entry: Cc1ccc(-c2cn3c(nc4ccccc43)c(C)n2)cc1
A. 59 µM (inactive)
